# TARGET_SYSTEM: HLA-A*02:01 (human)
# EXPERIMENTAL_DETAILS: UV peptide exchange; HLA class I ELISA
# MEASUREMENT_CONTEXT: remark: other sources report otherwise
READOUT: exchange rate with Pos (%)
Numeric answer only, unit % assumed.

Request: Name the reported exchange rate with Pos value associated with the binder YCMAAPMGL (here or on the partner: biotinylated heavy chain) [P76 9-mer … (AR-V3)]
Response: 85.9

Request: Name the reported exchange rate with Pos value associated with the binder RAKCKFSIL (here or on the partner: biotinylated heavy chain) [P56 9-mer … (SPOP F102C)]
Response: 8.4

Request: Name the reported exchange rate with Pos value associated with the binder LMAQRLLLR (here or on the partner: biotinylated heavy chain) [P97 9-mer … (FOXRED2-TXN2 fusion)]
Response: 4.6

Request: Name the reported exchange rate with Pos value associated with the binder IVWWCPMSR (here or on the partner: biotinylated heavy chain) [P98 9-mer … (TP53 R213D frameshift)]
Response: 7.9

Request: Name the reported exchange rate with Pos value associated with the binder CPMSRLRLA (here or on the partner: biotinylated heavy chain) [P46 9-mer … (TP53 R213D frameshift)]
Response: 14.4

Request: Name the reported exchange rate with Pos value associated with the binder LLERNSFEV (here or on the partner: biotinylated heavy chain) [P73 9-mer … (TP53 G266E)]
Response: 89.2

Request: Name the reported exchange rate with Pos value associated with the binder YQFTFDLLI (here or on the partner: biotinylated heavy chain) [P48 9-mer … (AR.p.H875Y)]
Response: 99.3

Request: Name the reported exchange rate with Pos value associated with the binder HVPKILSGK (here or on the partner: biotinylated heavy chain) [P58 9-mer … (AR Q903H)]
Response: 11.8

Request: Name the reported exchange rate with Pos value associated with the binder CYLGRQKRF (here or on the partner: biotinylated heavy chain) [P61 9-mer … (FOXA1.p.R261G)]
Response: 5.8

Request: Name the reported exchange rate with Pos value associated with the binder IPVLTRWPL (here or on the partner: biotinylated heavy chain) [P19 9-mer … (TMEM222-LOC644061 fusion)]
Response: 8.2

Sourced from patent US20230029453A1
